Field: inhibitory rate (%). Provide a value for each of the binders that follow.
- Assay system: T1, biotinylated hBLyS-ECD (human, UniProt Q9Y275 134-285, biotinylated with Biotin-X-X-NHS (molar ratio 7:1); sites not stated)
- T1 construct: also called biotinylated immunogen; biotinylated hBLvS-ECD
- T1 sequence (Q9Y275 134-285): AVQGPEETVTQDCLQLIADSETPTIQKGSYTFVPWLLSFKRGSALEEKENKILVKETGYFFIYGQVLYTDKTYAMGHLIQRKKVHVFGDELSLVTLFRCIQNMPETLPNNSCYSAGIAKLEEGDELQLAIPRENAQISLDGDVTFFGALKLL
- Assay method text: competition ELISA; competitor 97A3C2H4
Dear colleague, please return just the value in %, with no unit written.

For the binder shown here, 111D10D6G3 (antibody, V domains shown, Mouse hybridoma antibody purified on Protein G) VH: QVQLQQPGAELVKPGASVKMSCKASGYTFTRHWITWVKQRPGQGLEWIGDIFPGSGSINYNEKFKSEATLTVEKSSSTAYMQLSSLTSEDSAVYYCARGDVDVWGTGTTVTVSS VL: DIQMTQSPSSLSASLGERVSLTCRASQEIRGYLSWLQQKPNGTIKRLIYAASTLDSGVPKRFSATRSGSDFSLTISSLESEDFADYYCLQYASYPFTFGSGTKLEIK , give the reported inhibitory rate (%).
26

// query: 67A2E1D10 (antibody, V domains shown, Mouse hybridoma antibody purified on Protein G) VH: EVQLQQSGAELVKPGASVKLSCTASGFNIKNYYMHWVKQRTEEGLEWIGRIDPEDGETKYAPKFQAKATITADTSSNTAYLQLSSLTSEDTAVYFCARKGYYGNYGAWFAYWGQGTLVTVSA VL: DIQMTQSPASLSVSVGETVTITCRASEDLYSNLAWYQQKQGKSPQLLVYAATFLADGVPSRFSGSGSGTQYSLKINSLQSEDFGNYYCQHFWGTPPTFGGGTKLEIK
75

// query: 97A3C2H4 (antibody, V domains shown, Mouse hybridoma antibody purified on Protein G) VH: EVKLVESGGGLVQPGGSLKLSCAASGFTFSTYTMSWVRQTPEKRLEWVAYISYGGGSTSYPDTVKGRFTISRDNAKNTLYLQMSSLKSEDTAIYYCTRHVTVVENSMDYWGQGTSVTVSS VL: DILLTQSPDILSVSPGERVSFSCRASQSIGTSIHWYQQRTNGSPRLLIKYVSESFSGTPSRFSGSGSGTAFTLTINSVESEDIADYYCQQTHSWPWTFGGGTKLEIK
89

// query: 93C6F10D3 (antibody, V domains shown, Mouse hybridoma antibody purified on Protein G) VH: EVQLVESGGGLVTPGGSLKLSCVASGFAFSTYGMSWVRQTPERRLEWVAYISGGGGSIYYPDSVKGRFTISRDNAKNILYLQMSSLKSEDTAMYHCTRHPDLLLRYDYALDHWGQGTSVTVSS VL: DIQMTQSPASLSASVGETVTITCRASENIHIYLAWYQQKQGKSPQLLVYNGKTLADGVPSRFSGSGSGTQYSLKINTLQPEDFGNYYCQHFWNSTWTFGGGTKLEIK
90
